Test system: sugar beet
Test: Test B pre/postemergence sugar beet
Type: in vivo, Beta vulgaris
Settings: Preemergence, Rate 250 g/ha; scale 0 (no effect) to 10 (complete control)
measured quantity: Sugarbeets plant response rating

compound: COCC(OC)n1c(=O)on(C(=O)N(c2ccc(Cl)cc2)C(C)C)c1=O (centres unmarked) [Compound 726]
data value: 5
//
compound: CC(C)N(C(=O)n1oc(=O)n(C(C)C(=S)N(C)C)c1=O)c1ccc(F)cc1 (centres unmarked) [Compound 728]
data value: 4
//
compound: Cc1nc(C(C)n2c(=O)on(C(=O)N(c3ccccc3)C(C)C)c2=O)sc1C (centres unmarked) [Compound 756]
data value: 0
//
compound: C#CCn1c(=O)on(C(=O)N(c2ccc(F)cc2)C(C)C)c1=O [Compound 743]
data value: 4
//
compound: C#CC(C)n1c(=O)on(C(=O)N(c2ccc(F)cc2)C(C)C)c1=O (centres unmarked) [Compound 763]
data value: 3

###

Test system: purple nutsedge
Assay: Test B pre/postemergence purple nutsedge
Assay type: in vivo, Cyperus rotundus
Conditions: Rate 250 g/ha; Postemergence
measured quantity: Plant response rating (0 to 10; 0 is no effect, 10 is complete control), Nutsedge

molecule: CC(C)N(C(=O)n1oc(=O)n(C(C)C(=O)c2ccccc2)c1=O)c1ccc(F)cc1 (stereo not drawn)
data value: 0

molecule: CC(C)N(C(=O)n1oc(=O)n(CC#C[Si](C)(C)C)c1=O)c1ccc(F)cc1
data value: 0

molecule: CC(C)N(C(=O)n1oc(=O)n(Cc2ccco2)c1=O)c1ccc(F)cc1
data value: 0

molecule: CCCCn1c(=O)on(C(=O)N(c2ccc(F)cc2)C(C)C)c1=O
data value: 0

molecule: CC(C)N(C(=O)n1oc(=O)n(CCC(F)=C(F)F)c1=O)c1ccc(F)cc1
data value: 0

molecule: Cc1ccccc1-n1c(=O)on(C(=O)N(c2ccc(N(C)C)cc2)C(C)C)c1=O
data value: 0

###

Tested on: cocklebur
Assay: Test B pre/postemergence cocklebur
Format: in vivo, Xanthium strumarium
Details: Preemergence, Rate 125 g/ha
Parameter Cocklebur plant response rating (0 to 10 scale): see the listing below.
measured quantity: Cocklebur plant response rating (0 to 10 scale)

compound: CC(C)N(C(=O)n1oc(=O)n(C2CCC2)c1=O)c1ccc(Cl)cc1
data value: 0

compound: Cc1nsc(Cl)c1Cn1c(=O)on(C(=O)N(c2ccc(F)cc2)C(C)C)c1=O
data value: 0

compound: CC(C)N(C(=O)n1oc(=O)n(C(C)CCl)c1=O)c1ccc(F)cc1 (stereo not shown)
data value: 0

compound: Cc1c(-n2c(=O)on(C(=O)N(c3ccc(F)cc3F)C(C)C)c2=O)ccc2ccccc12
data value: 0

compound: CC(C)N(C(=O)n1oc(=O)n(C2CCC2)c1=O)c1ccccc1
data value: 0

compound: CC(C)N(C(=O)n1oc(=O)n(C2CCCCCC2)c1=O)c1ccc(Cl)cc1
data value: 0

compound: CC(C)C(C)n1c(=O)on(C(=O)N(c2ccc(F)cc2F)C(C)C)c1=O (stereo not shown)
data value: 0

###

System: crabgrass
Assay: Test B pre/postemergence crabgrass
Type: in vivo, Digitaria sanguinalis
Settings: Postemergence, Rate 250 g/ha; scale 0 to 10, 0 no effect, 10 complete control
Parameter Crabgrass plant response rating: see the listing below.

smi: CCN(CC)C(=O)n1oc(=O)n(-c2ccc(OC)cc2)c1=O
Crabgrass plant response rating: 5
//
smi: CC(C)Oc1cc(-n2c(=O)on(C(=O)N(c3ccc(F)cc3)C(C)C)c2=O)c(Cl)cc1Cl
Crabgrass plant response rating: 2
//
smi: CCn1c(=O)on(C(=O)N(c2ccc(Cl)cc2)C(C)C)c1=O
Crabgrass plant response rating: 8
//
smi: Cc1cccc(C)c1-n1c(=O)on(C(=O)N(c2ccccc2)C(C)C)c1=O
Crabgrass plant response rating: 3
//
smi: CC(C)N(C(=O)n1oc(=O)n(-c2cc(Cl)cc(Cl)c2)c1=O)C1=CCOCC1
Crabgrass plant response rating: 0

###

Test system: pigweed
Assay: Test B pre/postemergence pigweed
Type: in vivo, Amaranthus retroflexus
Conditions: Preemergence, Rate 500 g/ha; scale 0 (no effect) to 10 (complete control)
Parameter Redroot pigweed plant response rating: see the listing below.
measured quantity: Redroot pigweed plant response rating

compound: Cc1ccccc1-n1c(=O)on(C(=O)N(c2ccc(Cl)cc2)C(C)C)c1=O [Compound 41]
tested target: pigweed
data value: 7
//
compound: Cc1ccccc1Cn1c(=O)on(C(=O)N(c2ccc(F)cc2)C(C)C)c1=O [Compound 88]
tested target: pigweed
data value: 10
//
compound: CC(C)N(C(=O)n1oc(=O)n(-c2ccc(OC(F)(F)F)cc2)c1=O)C1=CCOCC1 [Compound 13]
tested target: pigweed
data value: 0
//
compound: COc1ccc(-n2c(=O)on(C(=O)N(C3=CCOCC3)C(C)C)c2=O)cc1 [Compound 6]
tested target: pigweed
data value: 7
//
compound: COc1ccc(-n2c(=O)on(C(=O)N(c3ccc(F)cc3)C(C)C)c2=O)c(C)c1 [Compound 35]
tested target: pigweed
data value: 0

###

Tested on: morningglory
Experiment: Test B pre/postemergence morningglory
Assay type: in vivo, Ipomoea hederacea
Conditions: Preemergence, Rate 250 g/ha
Parameter Morningglory plant response rating (0 to 10 scale): see the listing below.
measured quantity: Morningglory plant response rating (0 to 10 scale)

compound: CCOC(=O)C=C(Cn1c(=O)on(C(=O)N(c2ccccc2)C(C)C)c1=O)OCC [Compound 578]
data value: 0
--
compound: CC(C)N(C(=O)n1oc(=O)n(CCCCF)c1=O)c1ccccc1 [Compound 581]
data value: 4
--
compound: CCCCCn1c(=O)on(C(=O)N(c2ccc(Cl)cc2)C(C)C)c1=O [Compound 528]
data value: 0
--
compound: CCC(=O)Cn1c(=O)on(C(=O)N(c2ccc(Cl)cc2)C(C)C)c1=O [Compound 553]
data value: 0

###

Tested on: sugar beet
Experiment: Test B pre/postemergence sugar beet
Assay type: in vivo, Beta vulgaris
Conditions: Preemergence, Rate 250 g/ha; scale of 0 to 10 where 0 is no effect and 10 is complete control
measured quantity: Sugarbeets plant response rating

compound: Cc1ccccc1-n1c(=O)on(C(=O)N(c2ccc(F)cc2)C(C)C2CC2)c1=O (stereo not shown)
measured quantity: Sugarbeets plant response rating
data value: 0
--
compound: CC(C)N(C(=O)n1oc(=O)n(C2CC3CCC2C3)c1=O)c1ccc(F)cc1F (stereo not shown)
measured quantity: Sugarbeets plant response rating
data value: 0
--
compound: CC(C)N(C(=O)n1oc(=O)n(CCC(F)=C(F)F)c1=O)c1ccc(F)cc1
measured quantity: Sugarbeets plant response rating
data value: 6
--
compound: Cc1nsc(Cl)c1Cn1c(=O)on(C(=O)N(c2ccc(F)cc2)C(C)C)c1=O
measured quantity: Sugarbeets plant response rating
data value: 4

###

Test system: blackgrass
Experiment: Test B pre/postemergence blackgrass
Assay type: in vivo, Alopecurus myosuroides
Conditions: Rate 500 g/ha, Postemergence; scale 0 to 10, 0 no effect, 10 complete control
# if value of Blackgrass plant response rating reaches 7, tag satisfied; if it stays below, tag not satisfied

smi: CCN(CC)C(=O)n1oc(=O)n(-c2cccc3c2CCCC3)c1=O
tested target: blackgrass
category label: not satisfied
--
smi: CCc1noc(CC)c1-n1c(=O)on(C(=O)N(c2ccc(F)cc2)C(C)C)c1=O
tested target: blackgrass
category label: not satisfied
--
smi: C=CCn1c(=O)on(C(=O)N(c2ccccc2)C(C)C)c1=O
tested target: blackgrass
category label: satisfied
--
smi: CC(C)N(C(=O)n1oc(=O)n(C2CC2)c1=O)c1ccc(Cl)cc1
tested target: blackgrass
category label: satisfied
--
smi: CC(C)N(C(=O)n1oc(=O)n(Cc2cccs2)c1=O)c1ccccc1
tested target: blackgrass
category label: not satisfied
--
smi: CC(C)N(C(=O)n1oc(=O)n(Cc2cccs2)c1=O)c1ccc(F)cc1
tested target: blackgrass
category label: not satisfied
--
smi: CC(C)N(C(=O)n1oc(=O)n(CC2(C)COC2)c1=O)c1ccc(F)cc1
tested target: blackgrass
category label: satisfied

###

Test system: bedstraw
Assay: Test B pre/postemergence bedstraw
Type: in vivo, Galium aparine
Settings: Preemergence, Rate 125 g/ha; scale 0 to 10 (0 no effect, 10 complete control)
Description: […] At the same time, these crop and weed species were also treated with postemergence applications of test chemicals formulated in the same manner. […] Treated plants and controls were maintained in a greenhouse for twelve to sixteen days, after which all species were compared to controls and visually evaluated. […]

smi: CCCn1c(=O)on(C(=O)N(c2ccc(Cl)cc2)C(C)C)c1=O
Plant response rating, Bedstraw: 0
--
smi: CCN(C(=O)n1oc(=O)n(-c2c(C)cc(C)cc2C)c1=O)C1CCCCC1
Plant response rating, Bedstraw: 0
--
smi: CC(C)N(C(=O)n1oc(=O)n(-c2cc(Cl)cc(Cl)c2)c1=O)C1=CCOCC1
Plant response rating, Bedstraw: 0
--
smi: CCn1c(=O)on(C(=O)N(c2ccc(Cl)cc2)C(C)C)c1=O
Plant response rating, Bedstraw: 5
--
smi: CC(C)N(C(=O)n1oc(=O)n(C2CCCCC2)c1=O)c1ccc(F)cc1
Plant response rating, Bedstraw: 4
